# system under test: T1, human ROR2 expressed on the cell surface (human, UniProt Q01974 34-943)
# T1 construct: Endogenous ROR2 of human tumour cell lines; also called cell surface ROR2; ROR2 on tumour cell lines
# T1 sequence (Q01974 34-943 limits assumed): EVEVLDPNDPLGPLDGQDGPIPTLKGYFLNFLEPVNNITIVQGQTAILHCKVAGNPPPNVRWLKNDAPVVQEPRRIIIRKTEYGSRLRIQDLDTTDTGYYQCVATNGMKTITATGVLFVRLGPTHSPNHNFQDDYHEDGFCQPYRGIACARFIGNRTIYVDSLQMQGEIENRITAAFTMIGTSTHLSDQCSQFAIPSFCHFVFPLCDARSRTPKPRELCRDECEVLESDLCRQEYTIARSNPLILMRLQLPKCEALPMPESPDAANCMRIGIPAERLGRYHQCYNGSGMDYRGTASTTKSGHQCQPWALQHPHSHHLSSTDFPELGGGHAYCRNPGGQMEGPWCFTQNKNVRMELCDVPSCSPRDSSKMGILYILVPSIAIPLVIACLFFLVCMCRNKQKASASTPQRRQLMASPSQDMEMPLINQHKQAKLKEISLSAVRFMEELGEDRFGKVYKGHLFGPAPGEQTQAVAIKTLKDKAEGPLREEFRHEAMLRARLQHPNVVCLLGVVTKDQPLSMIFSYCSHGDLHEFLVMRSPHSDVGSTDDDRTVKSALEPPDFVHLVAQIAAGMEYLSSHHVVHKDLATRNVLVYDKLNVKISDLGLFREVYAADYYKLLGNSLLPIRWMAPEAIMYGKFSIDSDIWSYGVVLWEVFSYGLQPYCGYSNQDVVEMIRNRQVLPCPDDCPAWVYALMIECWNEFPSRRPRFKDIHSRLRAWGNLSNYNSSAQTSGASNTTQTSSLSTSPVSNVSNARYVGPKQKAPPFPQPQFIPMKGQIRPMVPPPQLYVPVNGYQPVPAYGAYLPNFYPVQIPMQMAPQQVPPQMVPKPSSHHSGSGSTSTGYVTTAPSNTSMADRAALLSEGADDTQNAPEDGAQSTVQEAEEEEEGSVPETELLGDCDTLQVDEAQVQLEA
# experiment description: flow cytometry, MCF7 cells (breast CA)
# Design: unit not given here
assay metric: binding intensity
Answers are plain numbers.

Qu. Determine from records and report binding intensity for ROR2-90 full length human IgG1 antibody (antibody, V domains shown, also called clone #90; antibody #90) VH: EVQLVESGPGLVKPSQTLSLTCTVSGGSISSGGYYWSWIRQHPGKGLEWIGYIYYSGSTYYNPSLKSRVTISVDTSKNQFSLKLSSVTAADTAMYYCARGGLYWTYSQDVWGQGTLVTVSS VL: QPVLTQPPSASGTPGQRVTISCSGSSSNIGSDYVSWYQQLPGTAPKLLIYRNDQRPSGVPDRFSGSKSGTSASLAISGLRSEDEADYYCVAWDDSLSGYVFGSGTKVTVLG
Ans. 115
